In this section we review reported log10(Kd) values for a set of compounds.
- tgt: C-CBL (46-435) (Homo sapiens, UniProt P22681)
- Construct: N-terminal biotinylated WT CBL-B (36-427) and C-CBL (46-435) were captured on a streptavidin (SA) coated sensor chip
- Sequence (P22681 46-435): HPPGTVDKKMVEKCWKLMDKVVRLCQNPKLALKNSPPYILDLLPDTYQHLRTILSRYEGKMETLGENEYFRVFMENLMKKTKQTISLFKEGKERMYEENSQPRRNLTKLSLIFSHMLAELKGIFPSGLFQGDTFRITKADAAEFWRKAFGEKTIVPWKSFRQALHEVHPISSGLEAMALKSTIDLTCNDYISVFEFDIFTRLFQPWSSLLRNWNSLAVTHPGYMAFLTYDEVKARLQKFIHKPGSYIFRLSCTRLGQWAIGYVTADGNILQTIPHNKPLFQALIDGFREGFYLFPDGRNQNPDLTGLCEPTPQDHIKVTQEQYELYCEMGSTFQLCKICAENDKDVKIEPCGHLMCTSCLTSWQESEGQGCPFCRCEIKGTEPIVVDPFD
- assay info: Surface Plasmon Resonance (SPR) assay, binding affinity and kinetics, C-CBL
- condition set: SPR at 10° C., biotinylated C-CBL (46-435) on streptavidin chip; geometric mean; read-out: C-CBL SPR Kd (nM) GMean
test readout: log10(Kd) (log10 of the value in nM)

compound	log10(Kd)
C[C@@H](NC1CCCC1)c1nc(C(F)(F)F)cc2c(-c3cccc(C4(Cc5nncn5C)COC4)c3)n[nH]c12 (single isomer, unassigned) [Example C15]	1.53
Cn1cnnc1[C@@H](c1cccc(-c2n[nH]c3cnc(Cl)cc23)c1)C1CCC1 [Example A3]	2.48
CC(NC1CC2(COC2)C1)c1nc(C(F)(F)F)cc2c(-c3cccc([C@H](c4nncn4C)C4CCC4)c3)n[nH]c12 (single isomer, unassigned) [Example C98]	2.31
CN1CC[C@H](Oc2nc(C(F)(F)F)cc3c(-c4cccc([C@H](c5nncn5C)C5CCC5)c4)n[nH]c23)C1 [Example J5]	2.14
C[C@@H]1CCCN(Cc2nc(C(F)(F)F)cc3c(-c4cccc([C@H](c5nncn5C)C5CCC5)c4)n[nH]c23)C1 [Example C108]	2.17
C[C@H](N[C@H]1C[C@H](O)C1)c1nc(C(F)(F)F)cc2c(-c3cccc([C@H](c4nncn4C)C4CCC4)c3)n[nH]c12 (single isomer, unassigned) [Example C91]	2.11
Cn1cnnc1[C@@H](c1cccc(-c2n[nH]c3c(CN[C@H]4C[C@H](O)C4)nc(C(F)(F)F)cc23)c1)C1CCC1 [Example C119]	2.40
CC(NC1CC(F)(F)C1)c1nc(C(F)(F)F)cc2c(-c3cccc(C4(Cc5nncn5C)COC4)c3)n[nH]c12 (single isomer, unassigned) [Example C94]	1.18
Cn1cnnc1[C@@H](c1cccc(-c2n[nH]c3c(CN4CCCCC4)nc(C(F)(F)F)cc23)c1)C1CCC1 [Example D95]	2.35
C[C@H](c1nc(C(F)(F)F)cc2c(-c3cccc(C4(Cc5nncn5C)COC4)c3)n[nH]c12)N1CCC(F)(F)C1 (single isomer, unassigned) [Example D6]	1.49
Cn1cnnc1CC1(c2cccc(-c3n[nH]c4c(CN[C@@H]5CCC(F)(F)C5)nc(C(F)(F)F)cc34)c2)COC1 [Example C60]	1.62
Cn1cnnc1[C@@H](c1cccc(-c2n[nH]c3c(C4CCCCN4)nc(C(F)(F)F)cc23)c1)C1CCC1 (single isomer, unassigned) [Example L1]	2.84

The reported measurements were obtained from patent US20260125375A1.
